TESTED_ON: T1, human c-Met ECD-Fc-Flis (human)
T1 construct: c-Met ECD fused to Fc with flag- and His-tag at the C-terminus; also called human c-Met extracellular domain (ECD)-Fc-Flis fusion; human c-Met-Flis-Fc ECD
TEST_SUMMARY: HGF-blocking ELISA: HGF signal on coated c-Met ECD-Fc-Flis; Ab 30.52 ng/mL
READOUT_NAME: AVG A450 nm (A450 nm)
Numbers only; they are read as A450 nm.

>>> experimental_result("C8-H241 (antibody, human IgG2, kappa, V domains shown, Named IgG4 kappa; also called Mab C8-H241) VH: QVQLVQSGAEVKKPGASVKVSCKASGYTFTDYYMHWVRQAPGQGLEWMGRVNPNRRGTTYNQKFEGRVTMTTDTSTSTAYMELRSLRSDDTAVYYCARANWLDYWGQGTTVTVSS VL: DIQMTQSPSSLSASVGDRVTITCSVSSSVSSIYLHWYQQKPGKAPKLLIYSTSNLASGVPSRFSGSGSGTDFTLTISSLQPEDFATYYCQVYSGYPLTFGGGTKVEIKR")
2.42

What value of AVG A450 nm has been reported for the following binder? C8-co-16 (antibody, human IgG2, kappa, V domains shown, Named IgG4 kappa; also called C8-co-16 IgG4) VH: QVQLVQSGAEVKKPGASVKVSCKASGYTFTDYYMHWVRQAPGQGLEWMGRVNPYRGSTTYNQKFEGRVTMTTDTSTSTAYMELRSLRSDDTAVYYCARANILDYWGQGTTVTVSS VL: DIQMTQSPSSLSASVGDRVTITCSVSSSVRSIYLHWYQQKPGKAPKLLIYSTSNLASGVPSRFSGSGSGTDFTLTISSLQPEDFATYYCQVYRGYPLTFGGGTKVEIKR 2.08
